Test system: JAK1 (IL-13-stimulated STAT6 phosphorylation in BEAS-2B cells)
assay.comment: P-STAT6 BEAS-2B+IL-13 cell assay
Assay type: cell-based, human
assay.context: 1 hour compound, IL-13 15 minutes, IC50 by four-parameter fit, read-out: Cellular JAK1 PSTAT6 BEAS2B + IL13
Procedure: In order to study the effect of JAK1 inhibitors in a cell line that is relevant to the cell biology of human asthma, an IL-13-stimulated STAT6 phosphorylation assay in the human lung bronchial epithelial BEAS-2B cell line was developed. BEAS-2B cells (ATCC® CRL-9609™) were grown in Bronchial Epithelial Growth Medium (BEGM) (Lonza Catalog No. CC-3170; Walkersville, MD; or PromoCell Catalog No. C-21060; Heidelberg, Germany). […] Plates were read on the MESO SECTOR S600. […]
Entries and their pIC50 values follow.
Would you please state pIC50, meaning minus log10 of the concentration in mol/L, as a bare number?

Known pIC50 results, listed for orientation:
compound	pIC50
O=C(Nc1cn(Cc2nnn(C3CCNC3)n2)nc1-c1cc(OC(F)F)ccc1OC(F)F)c1cnn2cccnc12 (single isomer, unassigned)	7.92
CN1CCC(n2nnc(Cn3cc(NC(=O)c4cnn5cccnc45)c(-c4cc(OC(F)F)ccc4OC(F)F)n3)n2)C1 (single isomer, unassigned)	7.77
CN(C)C1CCC(N2CC(n3nnc(Cn4cc(NC(=O)c5cnn6cccnc56)c(-c5cc(OC(F)F)ccc5OC(F)F)n4)n3)C2)C1 (single isomer, unassigned) [Example 75]	6.70

Prompt line: Return value of pIC50 for input CN(C)C1CCC(N2CC(n3nnc(Cn4cc(NC(=O)c5cnn6cccnc56)c(-c5cc(OC(F)F)ccc5OC(F)F)n4)n3)C2)C1 (single isomer, unassigned) [Example 74] , no commentary.
Response line: 7.03

Prompt line: Return value of pIC50 for input CN(C)CCN1CCC(n2nnc(Cn3cc(NC(=O)c4cnn5cccnc45)c(-c4cc(OC(F)F)ccc4OC(F)F)n3)n2)C1 (single isomer, unassigned) , no commentary.
Response line: 7.39

Prompt line: Return value of pIC50 for input CN1CCC[C@H]1CN1CC(n2nnc(Cn3cc(NC(=O)c4cnn5cccnc45)c(-c4cc(OC(F)F)ccc4OC(F)F)n3)n2)C1 (racemic) , no commentary.
Response line: 7.72

----------
target: recombinant human JAK1 kinase domain protein (Residues 854-1154) (Homo sapiens)
Construct: human JAK1 kinase domain protein (Residues 854-1154); purchased Proteros Biostructures GmbH (Martinsried, Germany); host or cells: insect cells
assay.comment: JAK1 biochemical assay (microfluidic mobility shift, peptide phosphorylation)
assay.context: 25 μM ATP, 1 nM total JAK1; Ki calculated from Ki app (tight-binding, competitive); read-out: Biochem JAK1 Ki
Decide using Ki alone. Strictly below 400 pM: satisfied. Equal to or above 400 pM: not satisfied.

Worked examples, 5 compounds total:
compound	label
CN1CCC(n2nnc(Cn3cc(NC(=O)c4cnn5cccnc45)c(-c4cc(OC(F)F)ccc4OC(F)F)n3)n2)C1 (single isomer, unassigned) [Example 29]	not satisfied
CN1CC(N(C)CCn2nnc(Cn3cc(NC(=O)c4cnn5cccnc45)c(-c4cc(OC(F)F)ccc4OC(F)F)n3)n2)C1 [Example 48]	not satisfied
CN(C)CCn1nnc(Cn2cc(NC(=O)c3cnn4cccnc34)c(-c3cc(OC(F)F)ccc3OC(F)F)n2)n1 [Example 16]	not satisfied
CN(C)CC(F)CN1CC(n2nnc(Cn3cc(NC(=O)c4cnn5cccnc45)c(-c4cc(OC(F)F)ccc4OC(F)F)n3)n2)C1 (single isomer, unassigned) [Example 83]	not satisfied
CN1CC(CN2CC(n3nnc(Cn4cc(NC(=O)c5cnn6cccnc56)c(-c5cc(OC(F)F)ccc5OC(F)F)n4)n3)C2)C1 [Example 56]	not satisfied

Prompt line: Could you please tell me whether Ki recorded for O=C(Nc1cn(Cc2nnn(C3COC3)n2)nc1-c1cc(Cl)ccc1OC(F)F)c1cnn2cccnc12 [Example 4] is less than 400 pM?
Response line: satisfied

Prompt line: Could you please tell me whether Ki recorded for CN1CC(n2nnnc2Cn2cc(NC(=O)c3cnn4cccnc34)c(-c3cc(Cl)ccc3OC(F)F)n2)C1 [Example 15] is less than 400 pM?
Response line: satisfied

Prompt line: Could you please tell me whether Ki recorded for CNCCn1nnc(Cn2cc(NC(=O)c3cnn4cccnc34)c(-c3cc(OC(F)F)ccc3OC(F)F)n2)n1 [Example 20] is less than 400 pM?
Response line: not satisfied

----------
target: Recombinant human JAK2 kinase domain protein (Residues 812-1132) (Homo sapiens, UniProt O60674)
Construct: human JAK2 kinase domain protein (Residues 812-1132)
Sequence (O60674 812-1132): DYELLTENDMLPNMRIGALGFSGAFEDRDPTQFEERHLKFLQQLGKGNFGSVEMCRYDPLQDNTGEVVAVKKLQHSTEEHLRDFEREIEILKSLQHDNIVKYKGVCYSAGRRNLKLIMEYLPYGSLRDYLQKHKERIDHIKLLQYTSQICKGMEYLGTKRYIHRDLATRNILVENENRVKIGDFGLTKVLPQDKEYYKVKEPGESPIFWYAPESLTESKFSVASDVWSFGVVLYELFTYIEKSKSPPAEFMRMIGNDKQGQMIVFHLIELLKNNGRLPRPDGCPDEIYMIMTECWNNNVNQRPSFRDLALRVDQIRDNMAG
assay.comment: JAK2 biochemical assay (microfluidic mobility shift, peptide phosphorylation)
assay.context: 25 μM ATP, 0.2 nM total JAK2; Ki calculated from Ki app (tight-binding, competitive); read-out: Biochem JAK2 Ki
Entries and their pKi values follow.
Would you please state pKi, meaning minus log10 of the concentration in mol/L, as a bare number?

Known pKi results, listed for orientation:
compound	pKi
CN(C)CCN1CC(n2nnc(Cn3cc(NC(=O)c4cnn5cccnc45)c(-c4cc(Cl)ccc4OC(F)F)n3)n2)C1 [Example 37]	9.44
CN1CCC(N2CC(n3nnc(Cn4cc(NC(=O)c5cnn6cccnc56)c(-c5cc(OC(F)F)ccc5OC(F)F)n4)n3)C2)C1 (single isomer, unassigned) [Example 72]	9.32
CSc1ccc(OC(F)F)c(-c2nn(Cc3nnnn3CCN(C)C)cc2NC(=O)c2cnn3cccnc23)c1 [Example 41]	9.70

Prompt line: Return value of pKi for input NCCN1CCC(n2nnc(Cn3cc(NC(=O)c4cnn5cccnc45)c(-c4cc(OC(F)F)ccc4OC(F)F)n3)n2)CC1 [Example 25] , no commentary.
Response line: 9.10

Prompt line: Return value of pKi for input NCCn1nnc(Cn2cc(NC(=O)c3cnn4cccnc34)c(-c3cc(OC(F)F)ccc3OC(F)F)n2)n1 [Example 13] , no commentary.
Response line: 9.80

Prompt line: Return value of pKi for input NCCn1nnnc1Cn1cc(NC(=O)c2cnn3cccnc23)c(-c2cc(OC(F)F)ccc2OC(F)F)n1 [Example 14] , no commentary.
Response line: 9.92

Prompt line: Return value of pKi for input CNCCN1CC(n2nnc(Cn3cc(NC(=O)c4cnn5cccnc45)c(-c4cc(OC(F)F)ccc4OC(F)F)n3)n2)C1 [Example 34] , no commentary.
Response line: 9.54

----------
target: recombinant human JAK1 kinase domain protein (Residues 854-1154) (Homo sapiens, UniProt P23458)
Construct: human JAK1 kinase domain protein (Residues 854-1154)
Sequence (P23458 854-1154): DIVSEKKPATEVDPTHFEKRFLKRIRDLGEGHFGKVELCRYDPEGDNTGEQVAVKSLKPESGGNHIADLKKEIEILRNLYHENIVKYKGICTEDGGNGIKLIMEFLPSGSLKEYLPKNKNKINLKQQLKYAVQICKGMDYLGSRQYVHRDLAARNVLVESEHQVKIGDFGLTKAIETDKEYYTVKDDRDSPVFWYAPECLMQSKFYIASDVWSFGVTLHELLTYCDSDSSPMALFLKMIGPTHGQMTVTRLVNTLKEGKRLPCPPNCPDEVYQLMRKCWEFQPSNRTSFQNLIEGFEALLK
assay.comment: JAK1 biochemical assay (microfluidic mobility shift, peptide phosphorylation)
assay.context: 25 μM ATP, 1 nM total JAK1; Ki calculated from Ki app (tight-binding, competitive); read-out: Biochem JAK1 Ki
result.type: Ki (pM)
Please respond with the number in pM and leave the unit unwritten.

Known Ki results, listed for orientation:
compound	Ki (pM)
CN(C)CCN1CCC(n2nnc(Cn3cc(NC(=O)c4cnn5cccnc45)c(-c4cc(OC(F)F)ccc4OC(F)F)n3)n2)CC1	630
NCCn1nnc(Cn2cc(NC(=O)c3cnn4cccnc34)c(-c3cc(OC(F)F)ccc3OC(F)F)n2)n1	250
CN(C)CCN1CC(n2nnc(Cn3cc(NC(=O)c4cnn5cccnc45)c(-c4cc(Cl)ccc4OC(F)F)n3)n2)C1	480
CN(C)CCn1nnc(Cn2cc(NC(=O)c3cnn4cccnc34)c(-c3cc4c(cc3OC(F)F)NCCO4)n2)n1	860
CN(C)CCN1CC(n2nnc(Cn3cc(NC(=O)c4cnn5cccnc45)c(-c4cc(OC(F)F)ccc4OC(F)F)n3)n2)C1	400

Consider the record given below.
Prompt line: Return value of Ki for input CN(C)C1CCC(N2CC(n3nnc(Cn4cc(NC(=O)c5cnn6cccnc56)c(-c5cc(OC(F)F)ccc5OC(F)F)n4)n3)C2)C1 (single isomer, unassigned) [Example 76] , no commentary.
Response line: 2400

----------
target: Recombinant human JAK2 kinase domain protein (Residues 812-1132) (Homo sapiens)
Construct: human JAK2 kinase domain protein (Residues 812-1132)
assay.comment: JAK2 biochemical assay (microfluidic mobility shift, peptide phosphorylation)
assay.context: 25 μM ATP, 0.2 nM total JAK2; Ki calculated from Ki app (tight-binding, competitive); read-out: Biochem JAK2 Ki
Decide using Ki alone. Strictly below 0.4 nM: rule met. Equal to or above 0.4 nM: rule not met.

Worked examples, 5 molecules total:
molecule	target	label
O=C(Nc1cn(Cc2nnnn2CCN2CCOCC2)nc1-c1cc(Cl)ccc1OC(F)F)c1cnn2cccnc12	Recombinant human JAK2 kinase domain protein (Residues 812-1132) (Homo sapiens)	rule met
CN1CC(n2nnc(Cn3cc(NC(=O)c4cnn5cccnc45)c(-c4cc(C5CC5)ccc4OC(F)F)n3)n2)C1	Recombinant human JAK2 kinase domain protein (Residues 812-1132) (Homo sapiens)	rule met
CN1CCN(CCn2nnc(Cn3cc(NC(=O)c4cnn5cccnc45)c(-c4cc(Cl)ccc4OC(F)F)n3)n2)CC1	Recombinant human JAK2 kinase domain protein (Residues 812-1132) (Homo sapiens)	rule not met
CN(C)CCN1CCC(n2nnc(Cn3cc(NC(=O)c4cnn5cccnc45)c(-c4cc(OC(F)F)ccc4OC(F)F)n3)n2)CC1	Recombinant human JAK2 kinase domain protein (Residues 812-1132) (Homo sapiens)	rule not met
CN(C)C1CCC(N2CC(n3nnc(Cn4cc(NC(=O)c5cnn6cccnc56)c(-c5cc(OC(F)F)ccc5OC(F)F)n4)n3)C2)C1 (single isomer, unassigned) [Example 75]	Recombinant human JAK2 kinase domain protein (Residues 812-1132) (Homo sapiens)	rule not met

Prompt line: Could you please tell me whether Ki recorded for CN1CCC[C@H]1Cn1nnnc1Cn1cc(NC(=O)c2cnn3cccnc23)c(-c2cc(OC(F)F)ccc2OC(F)F)n1 (racemic) is less than 0.4 nM?
Response line: rule not met

Prompt line: Could you please tell me whether Ki recorded for CSc1ccc(OC(F)F)c(-c2nn(Cc3nnn(CCN(C)C)n3)cc2NC(=O)c2cnn3cccnc23)c1 is less than 0.4 nM?
Response line: rule met

Prompt line: Could you please tell me whether Ki recorded for O=C(Nc1cn(Cc2nnn(C3CCNC3)n2)nc1-c1cc(OC(F)F)ccc1OC(F)F)c1cnn2cccnc12 (single isomer, unassigned) [Example 28] is less than 0.4 nM?
Response line: rule met

Prompt line: Could you please tell me whether Ki recorded for CN(C)C1CCN(CCn2nnc(Cn3cc(NC(=O)c4cnn5cccnc45)c(-c4cc(OC(F)F)ccc4OC(F)F)n3)n2)CC1 is less than 0.4 nM?
Response line: rule not met

Prompt line: Could you please tell me whether Ki recorded for CN(C)CCCN1CC(n2nnc(Cn3cc(NC(=O)c4cnn5cccnc45)c(-c4cc(OC(F)F)ccc4OC(F)F)n3)n2)C1 is less than 0.4 nM?
Response line: rule met

Prompt line: Could you please tell me whether Ki recorded for CSc1ccc(OC(F)F)c(-c2nn(Cc3nnn(C4CN(CCN(C)C)C4)n3)cc2NC(=O)c2cnn3cccnc23)c1 is less than 0.4 nM?
Response line: rule met

Prompt line: Could you please tell me whether Ki recorded for CN(C)CCCN1CC(n2nnc(Cn3cc(NC(=O)c4cnn5cccnc45)c(-c4cc(C5CC5)ccc4OC(F)F)n3)n2)C1 is less than 0.4 nM?
Response line: rule not met
